Hey, just so you know, these numbers are from patent US11266643B2.

# TARGET DESC: human PD-L1 (Homo sapiens (Human), UniProt Q9NZQ7)
# Sequence (Q9NZQ7 19-239): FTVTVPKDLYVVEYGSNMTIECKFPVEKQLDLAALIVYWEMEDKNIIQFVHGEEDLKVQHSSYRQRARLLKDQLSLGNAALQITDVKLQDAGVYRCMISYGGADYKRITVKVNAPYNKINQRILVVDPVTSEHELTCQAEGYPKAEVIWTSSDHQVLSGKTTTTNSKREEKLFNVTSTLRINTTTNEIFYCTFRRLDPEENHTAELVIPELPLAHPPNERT
# TEST SUMMARY: Enzyme-Linked Immunosorbent Assay (ELISA), PD-1/PD-L1 binding
# CONDITION INFO: plate-coated human PD-L1, biotinylated Human PD-1, absorbance at 450 nm
pIC50: −log10 of the molar value.

{"STRUCTURE SMILES": "COc1cc(-c2cccc(-c3cccc(Nc4nccc5nccnc45)c3Cl)c2Cl)cc(F)c1CN[C@@H]1COC[C@@H]1O", "pIC50": "> 8.00"}
{"STRUCTURE SMILES": "COc1cc(-c2cccc(-c3cccc(NC(=O)c4cn(C)c(=O)n(C)c4=O)c3C)c2Cl)ccc1CN[C@@H]1CCOC[C@@H]1O", "pIC50": "> 8.00"}
{"STRUCTURE SMILES": "COc1cc(-c2cccc(-c3cccc(NC(=O)c4cn(C)c(=O)n(C)c4=O)c3C)c2Cl)cc(F)c1CN[C@H]1CCOC[C@H]1O", "pIC50": "> 8.00"}

* * *

Here, each record is paired with measured pIC50 data.
# TARGET DESC: human PD-L1 (Homo sapiens (Human))
# TEST SUMMARY: Enzyme-Linked Immunosorbent Assay (ELISA), PD-1/PD-L1 binding
# CONDITION INFO: plate-coated human PD-L1, biotinylated Human PD-1, absorbance at 450 nm
pIC50: −log10 of the molar value.
RECORDED METRIC: pIC50

{"COMPOUND": "CCOc1cc(-c2cccc(-c3cccc(NC(=O)c4cn(C)c(=O)n(C)c4=O)c3C)c2Cl)ccc1CN[C@@H]1CCOC[C@@H]1O [Example 2.048]", "RECORDED METRIC": "pIC50", "MEASURED": "> 8.00"}
{"COMPOUND": "COc1cc(-c2cccc(-c3cccc(NC(=O)c4cn(C)c(=O)n(C)c4=O)c3C)c2Cl)cc(F)c1CN1CCC(C(=O)O)CC1 [Example 2.019]", "RECORDED METRIC": "pIC50", "MEASURED": "> 8.00"}
{"COMPOUND": "COc1cc(-c2cccc(-c3cccc(Nc4nccc5nccnc45)c3C)c2Cl)cc(F)c1CN[C@H]1CCC(=O)NC1 [Example 2.116]", "RECORDED METRIC": "pIC50", "MEASURED": "> 8.00"}

* * *

# TARGET DESC: human PD-L1 (Homo sapiens (Human), UniProt Q9NZQ7)
# TEST SUMMARY: Enzyme-Linked Immunosorbent Assay (ELISA), PD-1/PD-L1 binding
# CONDITION INFO: human PD-1/PD-L1 ELISA, plates coated with human PD-L1
Here, each record is paired with measured IC50 data.
RECORDED METRIC: IC50

{"MOLECULE": "COc1cc(-c2cccc(-c3cccc(Nc4nccc5nccnc45)c3C)c2C)cc(F)c1CN[C@@H]1CCNC1=O [Example 1.130]", "RECORDED METRIC": "IC50", "MEASURED": "10 to 1000 nM"}
{"MOLECULE": "COc1cc(-c2cccc(-c3cccc(NC(=O)c4cncn(C)c4=O)c3C)c2C)cc(F)c1CN[C@@H]1CC[C@H]1O (racemic) [Example 1.163]", "RECORDED METRIC": "IC50", "MEASURED": "< 10 nM"}
{"MOLECULE": "COc1cc(-c2cccc(-c3cccc(NC(=O)c4c[nH]c(=O)n(C)c4=O)c3C)c2C)cc(F)c1CNCCC1CNC(=O)C1 (stereo not drawn) [Example 1.086]", "RECORDED METRIC": "IC50", "MEASURED": "< 10 nM"}
{"MOLECULE": "COc1cc(-c2cccc(-c3cccc(NC(=O)c4nn(C)c(=O)n(C)c4=O)c3C)c2C)cc(F)c1CNC[C@@H]1CCC(=O)N1 [Example 1.104]", "RECORDED METRIC": "IC50", "MEASURED": "< 10 nM"}
{"MOLECULE": "COc1cc(-c2cccc(-c3cccc(NC(=O)c4cn(C)c(=O)n(C)c4=O)c3C)c2Cl)cc(F)c1CNCC(C)(C)C(N)=O [Example 1.034]", "RECORDED METRIC": "IC50", "MEASURED": "< 10 nM"}
{"MOLECULE": "COc1cc(-c2cccc(-c3cccc(Nc4nccc5c4C(=O)N(C)CC5)c3C)c2C)cc(F)c1CN[C@@H]1CCC[C@@H]1O [Example 1.191]", "RECORDED METRIC": "IC50", "MEASURED": "< 10 nM"}
